Just for reference, BindingDB's records for doi:10.1038/nchembio.2007.16 is where these values come from.

Target: Splicing factor 3B subunit 3 (Homo sapiens)
Sequence (Q15393 whole entry): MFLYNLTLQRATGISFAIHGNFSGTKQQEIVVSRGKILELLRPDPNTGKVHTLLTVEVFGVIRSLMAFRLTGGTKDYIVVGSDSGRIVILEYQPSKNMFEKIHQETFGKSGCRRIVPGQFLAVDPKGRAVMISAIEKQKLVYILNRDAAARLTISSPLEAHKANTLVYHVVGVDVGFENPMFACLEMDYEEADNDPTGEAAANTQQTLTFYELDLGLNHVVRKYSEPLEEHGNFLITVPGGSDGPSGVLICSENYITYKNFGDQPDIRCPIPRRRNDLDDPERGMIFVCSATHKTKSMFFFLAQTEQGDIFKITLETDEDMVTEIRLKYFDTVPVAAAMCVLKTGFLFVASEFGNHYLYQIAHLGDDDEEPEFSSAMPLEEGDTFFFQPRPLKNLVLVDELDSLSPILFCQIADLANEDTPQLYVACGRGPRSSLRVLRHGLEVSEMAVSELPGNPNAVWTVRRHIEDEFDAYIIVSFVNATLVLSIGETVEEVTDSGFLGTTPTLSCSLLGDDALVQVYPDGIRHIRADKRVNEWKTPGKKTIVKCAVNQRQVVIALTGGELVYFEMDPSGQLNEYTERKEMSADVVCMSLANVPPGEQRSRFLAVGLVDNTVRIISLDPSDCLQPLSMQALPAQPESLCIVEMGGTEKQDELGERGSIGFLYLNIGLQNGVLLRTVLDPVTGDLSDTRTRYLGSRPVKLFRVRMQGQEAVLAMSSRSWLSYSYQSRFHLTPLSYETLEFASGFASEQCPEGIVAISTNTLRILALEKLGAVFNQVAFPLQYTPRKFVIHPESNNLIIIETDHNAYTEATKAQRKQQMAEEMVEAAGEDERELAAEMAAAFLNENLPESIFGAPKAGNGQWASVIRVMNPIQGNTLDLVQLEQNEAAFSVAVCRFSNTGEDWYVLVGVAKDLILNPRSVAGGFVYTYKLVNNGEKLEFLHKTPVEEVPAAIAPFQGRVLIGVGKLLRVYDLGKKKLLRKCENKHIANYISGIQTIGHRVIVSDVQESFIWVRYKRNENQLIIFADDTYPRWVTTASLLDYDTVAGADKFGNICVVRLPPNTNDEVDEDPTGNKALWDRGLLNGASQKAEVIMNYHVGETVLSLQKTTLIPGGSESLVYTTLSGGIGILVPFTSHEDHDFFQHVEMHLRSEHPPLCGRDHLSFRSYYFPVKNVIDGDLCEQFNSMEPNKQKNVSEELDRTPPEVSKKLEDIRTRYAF
Experiment: WiDr
Conditions: pH 7.8; 4 °C
assay.readout: EC50

The examples below pair each entry with its known result.
# smiles.entry, EC50
data = [
    ("CC[C@H](O)[C@@H](C)[C@H]1O[C@@H]1C[C@H](C)/C=C/C=C(\\C)[C@H]1OC(=O)C[C@H](O)CC[C@@](C)(O)[C@@H](OC(=O)NCCOCCOCCNC(=O)CCCCC2=[N+]3C(=Cc4c(C)cc(C)n4[B-]3(F)F)C=C2)/C=C/[C@@H]1C", "70.2 nM"),
    ("CCNC(=O)O[C@H]1/C=C/[C@H](C)[C@@H](/C(C)=C/C=C/[C@@H](C)C[C@H]2O[C@@H]2[C@H](C)[C@@H](O)CC)OC(=O)C[C@H](O)CC[C@@]1(C)O", "6.1 nM"),
    ("CC[C@H](O)[C@@H](C)[C@H]1O[C@@H]1C[C@@](C)(O)/C=C/C=C(\\C)[C@H]1OC(=O)C[C@H](O)CC[C@@](C)(O)[C@@H](OC(C)=O)/C=C/[C@@H]1C", "6 nM"),
]

Now look at this entry.
Look at this molecule and give its reported EC50. CC[C@H](O)[C@@H](C)[C@H]1O[C@@H]1C[C@H](C)/C=C/C=C(\C)[C@H]1OC(=O)C[C@H](O)CC[C@@](C)(O)[C@@H](OC(=O)NCCCC[C@H](NC(=O)c2ccc(C3(C(F)(F)F)N=N3)cc2)C(=O)N(C)CCN(C)C(=O)CCCC[C@H]2SC[C@H]3NC(=O)N[C@H]32)/C=C/[C@@H]1C
595 nM
